Data origin: the RNAGym collection of RNA variant scans (doi:10.1073/pnas.2313332121)

B1: TPR t1 (parent)
chain: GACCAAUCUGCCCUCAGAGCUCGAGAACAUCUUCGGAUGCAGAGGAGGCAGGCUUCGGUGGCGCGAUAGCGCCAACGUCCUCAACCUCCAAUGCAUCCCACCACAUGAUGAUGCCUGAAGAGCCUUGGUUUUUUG

Variants of: B1
Experiment: polymerase ribozyme fitness, log enrichment relative to wild type (log ratio); higher = more active; in vitro selection for triplet polymerase activity
reportedMetric: polymerase ribozyme fitness (log ratio)
Give bare numbers.

Hi team, please reply with polymerase ribozyme fitness (log ratio) for each item in this list.
1. GACCAAUCUGCCCUCAGAGCUCGAGAACAUCUUCGGAUGCAGAGGAGGCAGGCUUCGGUGGCCCGAUAGCGCCAACGUCCUCAACCUCCAAUGCAUCCCAUCACAUGAUGAUGCCUGAAGAGCCUUGGUUUUUUG [G63C C101U]
2. GACCAAUCUGCGCUCAGAGUUCGAGAACAUCUUCGGAUGCAGAGGAGGCAGGCUUCGGUGGCGCGAUAGCGCCAACGUCCUCAACCUCCAAUGCAUCCCACCACAUGAUGAUGCCUGAAGAGUCCUGGUUUUUUG [C12G C20U C123U U125C]
3. GACCAAUCUGCCCUCAGAGCUCGAGAACAUCUUCAGAUGCAGAGGAGGCAGGCUUCUGUGGCGCGAUAGCGCCUACGUCCUCAACCUCCAAUGCAUCCCACCACAUGAUGAUGCCUGAAGAGCCUUGGUUUUUUG [G35A G57U A74U]
4. GACCAAUCUGCCCCCAGAGCUCGAGAACAUCUUCGGAUGCAGAGGAGUCAGGCAUCGGUGGCGCGAUAGCGCCAACGUCCUCAACCUCCAAUGCAUCCCACCACAUGAUGAUGCCUGAAGAGCCUUGGUUUUUUG [U14C G48U U54A]
5. GACCAAUCUGCCCUCAGAGCUCGAGAACAUCUUCGGAUGCAGAAGAGGCAGGCUUCGGUGGCGCGAUAGCGGCAACGUCCUCAACCUCCAAUGCAUCCCACCACAUGAUGAGGCCUAAAGAGCCUUGGUUUUUUG [G44A C72G U112G G117A]
6. GACCAAUCUGCCCUCAAAGUUCGAGAACAUCUUCGGAUGCAGAGGAGGCAGGCUUCCGUGACGCGAUAGCGCCAACGUCCUCAACCUCCAAUGCAUCCCACCACAUGAUGAUGCCUGAAGAGCCUUGGUUUUUUG [G17A C20U G57C G61A]
7. GACCAAUCUGCCCUCAGAGCUCGAGAACAUCUUCGGAUGCAGAGGAGGCAGGCUUCGGUGGCGCGAUAGGGCCAACGUCCUCAACCUCCAAUGCAUCCCUCCACAUGAUGAUGCCUACAGAGCCUUGGUUUUUUG [C70G A100U G117A A118C]

Result:
1. -1.5
2. -0.31
3. -4.21
4. -2.87
5. -5.1
6. -4.32
7. -6.05
